Reported pIC50 is given for each of the following compounds.
Test system: NCI-H358 (K-Ras G12C)
ASSAY_NAME: CellTiter-Glo cell viability assay, H358
Type: cell-based
MEASUREMENT_CONTEXT: Homo sapiens, NCI-H358, 120 h, read-out: H358 Cell Viability IC50, NCI-H358, K-Ras G12C, 5-day treatment
pIC50: −log10 of the molar value.

{"COMPOUND": "CCn1c(-c2cccnc2[C@H](C)OC)c2c3cc(ccc31)-c1cc(O)cc(c1)C[C@H](NC(=O)[C@H](C(C)C)N(C)C(=O)CN(C)C(=O)[C@H]1CN1CC(=O)N(C)C)C(=O)N1CCC[C@H](N1)C(=O)OCC(C)(C)C2 (stereo partly shown)", "pIC50": "7.00 to 8.00"}
{"COMPOUND": "CCn1c(-c2cccnc2[C@H](C)OC)c2c3cc(ccc31)-c1cc(O)cc(c1)C[C@H](NC(=O)[C@H](C(C)C)N(C)C(=O)CN(C)C(=O)[C@H]1CN1)C(=O)N1CCC[C@H](N1)C(=O)OCC(C)(C)C2 [Compound 42A]", "pIC50": "> 8.00"}
{"COMPOUND": "CCn1c(-c2cnccc2COC)c2c3cc(ccc31)-c1cc(O)cc(c1)C[C@H](NC(=O)[C@H](C(C)C)N(C)C(=O)CN(C)C(=O)[C@@H]1N[C@@H]1C(=O)OC)C(=O)N1CCC[C@H](N1)C(=O)OCC(C)(C)C2", "pIC50": "5.00 to 6.00"}
{"COMPOUND": "CCn1c(-c2cccnc2[C@H](C)OC)c2c3cc(ccc31)-c1cc(O)cc(c1)C[C@H](NC(=O)[C@H](C(C)C)N(C)C(=O)CN(C)C(=O)[C@H]1CN1Cc1ccccc1CO)C(=O)N1CCC[C@H](N1)C(=O)OCC(C)(C)C2 (stereo partly shown)", "pIC50": "> 8.00"}
